Biological target: T1, DR3 (CRD1)-Fc (human)
T1 construct: Amino acids 25-71 of DR3 fused to the Fc domain of human IgG4; purified to exclude oligomers (mainly dimeric)
T1 sequence (chain, as listed by the source limits assumed): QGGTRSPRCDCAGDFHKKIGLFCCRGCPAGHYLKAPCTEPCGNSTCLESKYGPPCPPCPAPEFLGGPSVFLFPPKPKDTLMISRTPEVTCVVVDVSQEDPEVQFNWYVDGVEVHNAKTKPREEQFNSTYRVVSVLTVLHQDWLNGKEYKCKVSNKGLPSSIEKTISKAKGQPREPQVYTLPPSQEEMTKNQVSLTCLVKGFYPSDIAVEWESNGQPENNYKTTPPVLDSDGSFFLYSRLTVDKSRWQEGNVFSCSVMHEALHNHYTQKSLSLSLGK
Test: SPR Biacore T200, DR3(CRD1)-Fc captured by anti-human IgG, Fab as analyte, 25 C, 1:1 model, mean of 3 surface densities
endpointName: koff (s⁻¹)
A number alone suffices; assume s⁻¹.

# binder, koff, s⁻¹
records = [
    ("0124 (chimeric Fab of 28F26, human IgG4 constant domain, hinge Cys->Ser) (Fab, V domains shown, murine variable domains, human IgG4 constant domain (IgG4-Ser)) VH: EVKVVESGGGLVKPGGSLKLSCAASGFVFSSYDMSWVRQIPEKRLEWVAAISSGDYYTYYPDSVKGRFTISRDDARNTLYLQMSSLRSEDTALYYCARHRGGNYPQYAMDYWGQGTSVTVSS VL: DILLTQSPASFAVSLGQRATISCRASKSVSTSGYNYIHWYQQKPGQPPKLLIYLTSNLESGVPARFSGSGSGTDFTLNIHPVEEEDAATYYCQHSRELPFTFGSGTKLEIKR", 0.000201),
]

Switching to the query record.
Reported koff, binder 0228 (humanized Fab of 27F44, IgG4, hz0072VH S49A / hz0072VL) (Fab, V domains shown, IgG4-Cys, hz (humanized IgG4 Fab with the hinge cysteine kept)) VH: EVQLVESGGGLVQPGGSLRLSCAASGFTFSNYDMSWVRQATGKGLEWVAAFSSDGYTFYPGSVKGRFTISRENAKNSLYLQMNSLRAGDTAVYYCARHADYANYPVMDYWGQGTLVTVSS VL: DIQMTQSPSSLSASVGDRVTITCRASKSVSTSGYSYMHWYQQKPGKAPKLLIYLASNLESGVPSRFSGSGSGTDFTLTISSLQPEDFATYYCQHSRELPLTFGGGTKVEIKR : ____
3.19e-05
